These entries and their values trace back to a flash point compilation (Sun et al. 2020).

Catalogue of compounds with associated flash point
reportedMetric: flash point (°C)

# compound, observedValue
data = [
    ("NC1CCCCC1", 31.00),
    ("O=C(O)c1ccccc1", 121.00),
    ("CCCCC(=O)OC [methyl pentanoate]", 22.00),
    ("Nc1ccc(Cl)c(Cl)c1", 166.00),
    ("COS(=O)(=O)C(F)(F)F [methyl trifluoromethanesulfonate]", 38.00),
    ("CCCCCCCl", 35.00),
    ("Cc1cccc(C)c1C", 44.00),
    ("Oc1ccc(Cl)cc1Cc1ccccc1", 188.00),
    ("CC(Cl)C(=O)O (stereo not drawn)", 107.00),
    ("CC(C)(Cl)[N+](=O)[O-]", 57.00),
    ("C=C(C)C(=O)OCC(Br)CBr (stereo not drawn) [2,3-dibromopropyl 2-methylprop-2-enoate]", 59.00),
    ("CCC(C)C", -57.00),
    ("CC(C)(C)c1cc(O)ccc1O", 171.00),
    ("CCCCOCCOCCOCCCC [1-[2-(2-butoxyethoxy)ethoxy]butane]", 118.00),
    ("Cl.Nc1ccccc1 [aniline;hydrochloride]", 193.00),
    ("Cl[Si](Cl)(Cl)c1ccccc1", 91.00),
    ("CCOC(N)=O [ethyl carbamate]", 92.00),
    ("OCCNCCO [2-(2-hydroxyethylamino)ethanol]", 137.00),
    ("C=C(Cl)Cl", -10.00),
    ("C=CCc1ccc(O)c(OC)c1", 104.00),
    ("C1=C\\CCCC\\C=C/1", 35.00),
    ("OCCN1CC1", 67.00),
    ("CC(Cl)CCl (stereo not drawn)", 16.00),
]

---

Parameter: flash point. Scope: all listed entries.
reportedMetric: flash point (°C)

# compound, observedValue
measured = [
    ("CC(C)(C)c1ccccc1OP(=O)(Oc1ccccc1)Oc1ccccc1 [(2-tert-butylphenyl) diphenyl phosphate]", 224.00),
    ("CCCCCCCCCCCCCCCCCCCCCC [docosane]", 113.00),
    ("O=C1CCCN1 [pyrrolidin-2-one]", 129.00),
    ("CCCCNCC [N-ethylbutan-1-amine]", 18.00),
    ("CN(C)c1ccc(N)cc1 [4-N,4-N-dimethylbenzene-1,4-diamine]", 91.00),
]

---

Item-by-item account of flash point

# compound, flash point / °C
measured = [
    ("CCCCCS [pentane-1-thiol]", 18.00),
    ("CC(C)CCCCCOP(=S)([S-])OCCCCCC(C)C.CC(C)CCCCCOP(=S)([S-])OCCCCCC(C)C.[Zn+2]", 160.00),
    ("CC(C)OC(=O)Cl [propan-2-yl carbonochloridate]", 16.00),
    ("C=CC(=O)OCCCO [3-hydroxypropyl prop-2-enoate]", 97.00),
    ("CC1CCCCC1O (configuration not stated) [2-methylcyclohexan-1-ol]", 59.00),
    ("O=[N+]([O-])c1ccc(Cl)c(Cl)c1 [1,2-dichloro-4-nitrobenzene]", 124.00),
    ("C=CCOC(=O)c1ccccc1C(=O)OCC=C [bis(prop-2-enyl) benzene-1,2-dicarboxylate]", 110.00),
    ("CNCCO [2-(methylamino)ethanol]", 74.00),
    ("C=C(C)C(=O)OCCO [2-hydroxyethyl 2-methylprop-2-enoate]", 97.00),
    ("CCOC(=O)CC [ethyl propanoate]", 12.00),
    ("CCOC(=O)/C=C/C(=O)OCC [diethyl (E)-but-2-enedioate]", 104.00),
    ("COC(=O)CCl [methyl 2-chloroacetate]", 52.00),
    ("O=Cc1ccco1 [furan-2-carbaldehyde]", 60.00),
    ("CC=O [acetaldehyde]", -40.00),
    ("CCC(C)S (configuration not stated) [butane-2-thiol]", -23.00),
    ("CC1CCC(CO)CC1 (configuration not stated) [(4-methylcyclohexyl)methanol]", 112.00),
    ("c1c[nH]cn1 [1H-imidazole]", 145.00),
    ("c1ccc(Nc2ccc(Nc3ccccc3)cc2)cc1 [1-N,4-N-diphenylbenzene-1,4-diamine]", 204.00),
    ("N#CC(Cl)(Cl)Cl [2,2,2-trichloroacetonitrile]", 74.00),
    ("CCC#N [propanenitrile]", 2.00),
    ("C1COC1 [oxetane]", -28.00),
    ("CCO[Si](OCC)(OCC)OCC [tetraethyl silicate]", 37.00),
    ("O=C1OC(=O)C2CC=CCC12 (configuration not stated) [3a,4,7,7a-tetrahydro-2-benzofuran-1,3-dione]", 157.00),
    ("CC1(O)CCCCC1 [1-methylcyclohexan-1-ol]", 67.00),
    ("CC(C)N(C(=O)SCC(Cl)=CCl)C(C)C", 96.00),
    ("C=CC(N)=O [prop-2-enamide]", 138.00),
    ("CC(=O)C=CC1C(C)=CCCC1(C)C (configuration not stated) [4-(2,6,6-trimethylcyclohex-2-en-1-yl)but-3-en-2-one]", 118.00),
    ("CCCCCN(CCCCC)CCCCC [N,N-dipentylpentan-1-amine]", 102.00),
    ("C=C(C)C(=O)OCC(C)C [2-methylpropyl 2-methylprop-2-enoate]", 49.00),
    ("O=C(OC1CCCCC1)c1ccccc1C(=O)OC1CCCCC1 [dicyclohexyl benzene-1,2-dicarboxylate]", 207.00),
    ("Cc1cc(C)nc(C)c1 [2,4,6-trimethylpyridine]", 58.00),
    ("O=C=Nc1cccc2c(N=C=O)cccc12 [1,5-diisocyanatonaphthalene]", 155.00),
    ("CCCC[O-].CCCC[O-].CCCC[O-].CCCC[O-].[Ti+4] [butan-1-olate;titanium(4+)]", 77.00),
    ("CN(C)c1ccc(Cc2ccc(N(C)C)cc2)cc1 [4-[[4-(dimethylamino)phenyl]methyl]-N,N-dimethylaniline]", 211.00),
    ("CSCCC(O)C(=O)O (configuration not stated) [2-hydroxy-4-methylsulfanylbutanoic acid]", 121.00),
    ("NCc1cccc(CN)c1 [[3-(aminomethyl)phenyl]methanamine]", 117.00),
    ("C=COCCOC [1-ethenoxy-2-methoxyethane]", 18.00),
    ("OCC#CCO [but-2-yne-1,4-diol]", 128.00),
    ("C=CCN(CC=C)C(=O)CCl [2-chloro-N,N-bis(prop-2-enyl)acetamide]", 186.00),
    ("C=CCCCCCCCCC [undec-1-ene]", 71.00),
    ("C[C@@H]1[C@@H](c2ccc(Cl)cc2)SC(=O)N1C(=O)NC1CCCCC1", 100.00),
    ("CN(C)C=O [N,N-dimethylformamide]", 67.00),
]
